Reference source for all entries: ChEMBL document CHEMBL1201862

- Test system: HL-60
- assayDetails: NCI tumour cell line growth inhibition, 48 h
Calls of active or inactive are those of the source. Cut-off read from the data, not from the text of the source: active = GI50 up to about 1.1 µM and inactive = higher.
Respond using exactly one of the listed classes: active, inactive

> print(dat)
                                   compound     label
1  Brc1cccc(/C=C/CN2CCN(CCOC(c3ccccc3)c3ccccc3)CC2)c1  inactive
2  CC(=O)C1C(=O)C(=O)N(c2ccccc2N2C(=O)C(=O)C(C(C)=O)C2=O)C1=O (stereo not given)  inactive

Test call, this compound: Cc1cc(O)c2c(c1)C(C1c3cccc(O)c3C(=O)c3c(O)cc(C)cc31)c1cccc(O)c1C2=O (stereo not given)
active

Hi, do you know how O=P(O)(O)OC1O[C@H](CO)[C@H](O)[C@H](O)[C@H]1O (stereo not given in full) came out in this test?
inactive

Assay outcome for NC1CC(n2ccc(=O)[nH]c2=O)OC1C(O)CO (stereo not given) : what was it?
inactive

Dear all, I need the recorded test outcome for O=[N+]([O-])c1ccc(Cl)c(C2CC(c3cccc4ccccc34)=Nc3ccccc3[S+]2[O-])c1 (stereo not given) , thank you.
inactive

Please let me know the test result on file for `Nc1ccccc1OCCCOc1ccccc1N` .
inactive

What classification did `Cc1cc([N+](=O)[O-])ccc1/N=N/C(=O)NNc1ccc([N+](=O)[O-])cc1C` end up with in this test?
inactive

Write down the call the test reported for this compound. Item: NCC(=O)OCN1C(=O)C2C3C=CC(C2C1=O)C1C2C(=O)N(COC(=O)CN)C(=O)C2C31 (stereo not given)
inactive

Any idea what this test logged for `C=C(c1ccccc1)c1ccccc1-c1cc(-c2ccccc2)cc(-c2ccccc2)n1` ?
inactive
